test_description: Fraction unbound in mouse plasma by equilibrium dialysis method
Assay type: ADME, cell-free

{"compound": "CCS(=O)(=O)N[C@@H]1C[C@]2(C)O[C@]1(C)[C@@H]1C(=O)N(c3ccc(C#N)c(C(F)(F)F)c3)C(=O)[C@@H]12", "fraction unbound": 0.148}

----------
test_description: Half life in rat at 5 mg/kg, iv and 10 mg/kg, po
Type: ADME, organism-based
reported_conditions: in vivo
reported_metric: half-life (h)

{"compound": "CCS(=O)(=O)N[C@@H]1C[C@]2(C)O[C@]1(C)[C@@H]1C(=O)N(c3ccc(C#N)c(C(F)(F)F)c3)C(=O)[C@@H]12", "reported_metric": "half-life", "recorded_value": 3.7}

----------
System: LNCaP
test_description: Cytotoxicity against human LNCAP cells
Format: functional, cell-based

{"compound": "CCS(=O)(=O)N[C@@H]1C[C@]2(C)O[C@]1(C)[C@@H]1C(=O)N(c3ccc(C#N)c(C(F)(F)F)c3)C(=O)[C@@H]12", "IC50": "153 nM"}

----------
target_of_assay: Cytochrome P450 3A4 (Homo sapiens, UniProt P08684)
Sequence (P08684 whole entry): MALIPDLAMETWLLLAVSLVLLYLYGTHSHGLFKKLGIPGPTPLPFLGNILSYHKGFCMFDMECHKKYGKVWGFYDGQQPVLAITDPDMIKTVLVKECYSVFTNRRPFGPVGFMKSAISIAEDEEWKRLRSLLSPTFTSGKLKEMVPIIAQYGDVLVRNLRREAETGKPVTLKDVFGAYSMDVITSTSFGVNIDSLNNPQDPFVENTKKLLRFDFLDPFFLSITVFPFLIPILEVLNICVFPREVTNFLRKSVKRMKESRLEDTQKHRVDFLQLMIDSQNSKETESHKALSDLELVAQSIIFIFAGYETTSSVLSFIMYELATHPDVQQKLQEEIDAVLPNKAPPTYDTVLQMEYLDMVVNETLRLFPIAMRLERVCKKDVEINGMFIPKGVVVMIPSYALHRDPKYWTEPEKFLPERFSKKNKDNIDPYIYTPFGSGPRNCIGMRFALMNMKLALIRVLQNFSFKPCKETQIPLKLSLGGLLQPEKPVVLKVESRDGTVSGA

{"compound": "CCS(=O)(=O)N[C@@H]1C[C@]2(C)O[C@]1(C)[C@@H]1C(=O)N(c3ccc(C#N)c(C(F)(F)F)c3)C(=O)[C@@H]12", "IC50": "> 40 µM"}

----------
target_of_assay: Cytochrome P450 2B6 (Homo sapiens)
Sequence (P20813 whole entry): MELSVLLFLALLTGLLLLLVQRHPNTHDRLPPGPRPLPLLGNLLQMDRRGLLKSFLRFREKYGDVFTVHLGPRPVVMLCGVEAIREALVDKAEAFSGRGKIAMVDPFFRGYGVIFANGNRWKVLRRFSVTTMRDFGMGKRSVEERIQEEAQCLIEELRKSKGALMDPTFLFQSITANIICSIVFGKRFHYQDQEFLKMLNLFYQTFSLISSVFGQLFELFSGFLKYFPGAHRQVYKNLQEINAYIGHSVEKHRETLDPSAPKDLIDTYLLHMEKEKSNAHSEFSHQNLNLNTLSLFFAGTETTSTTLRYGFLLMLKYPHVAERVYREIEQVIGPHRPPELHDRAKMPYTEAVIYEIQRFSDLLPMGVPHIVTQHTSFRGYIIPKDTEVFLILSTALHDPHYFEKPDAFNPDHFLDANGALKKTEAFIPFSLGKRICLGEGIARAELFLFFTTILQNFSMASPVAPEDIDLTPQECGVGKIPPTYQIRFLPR
pIC50: −log10 of the molar value.

{"compound": "CCS(=O)(=O)N[C@@H]1C[C@]2(C)O[C@]1(C)[C@@H]1C(=O)N(c3ccc(C#N)c(C(F)(F)F)c3)C(=O)[C@@H]12", "pIC50": "< 4.40"}

----------
test_description: AUC (0 to infinity) in rat at 5 mg/kg, iv
Assay type: ADME, organism-based
Parameters: dose 5 mg/kg, route intravenous, time infinity
reported_conditions: in vivo
reported_metric: AUC(0-inf) (µM·h)

{"compound": "CCS(=O)(=O)N[C@@H]1C[C@]2(C)O[C@]1(C)[C@@H]1C(=O)N(c3ccc(C#N)c(C(F)(F)F)c3)C(=O)[C@@H]12", "result_unit": "µM·h", "recorded_value": 31.7}

----------
Tested on: Rattus norvegicus
test_description: In vivo antagonist activity at androgen receptor in immature Sprague-Dawley rat prostate weight model assessed as testosterone propionate-induced weight of seminal vesicles over full body weight at 1 mg/kg, po qd administered for 4 days
Format: functional
Set-up: scale not given: the % may be the effect or the level left
Below is a list of entries, each paired with its recorded Activity value.

{"compound": "CC(O)(CS(=O)(=O)c1ccc(F)cc1)C(=O)Nc1ccc(C#N)c(C(F)(F)F)c1 (stereo not given) [BICALUTAMIDE]", "target_of_assay": "Rattus norvegicus", "Activity (%)": 69}
{"compound": "CN(C(=O)[C@@H]1C[C@]2(C)O[C@]1(C)[C@@H]1C(=O)N(c3ccc(C#N)c(C(F)(F)F)c3)C(=O)[C@@H]12)c1ccccc1", "target_of_assay": "Rattus norvegicus", "Activity (%)": 88}
{"compound": "C[C@]12O[C@@](C)(C[C@H]1NS(=O)(=O)c1cccnc1)[C@H]1C(=O)N(c3ccc(C#N)c(C(F)(F)F)c3)C(=O)[C@H]12", "target_of_assay": "Rattus norvegicus", "Activity (%)": 44}
{"compound": "CC(C)NC(=O)N[C@@H]1C[C@]2(C)O[C@]1(C)[C@@H]1C(=O)N(c3ccc(C#N)c(C(F)(F)F)c3)C(=O)[C@@H]12", "target_of_assay": "Rattus norvegicus", "Activity (%)": 115}
{"compound": "CCS(=O)(=O)N[C@@H]1C[C@]2(C)O[C@]1(C)[C@@H]1C(=O)N(c3ccc(C#N)c(C(F)(F)F)c3)C(=O)[C@@H]12", "target_of_assay": "Rattus norvegicus", "Activity (%)": 58}
